Please go through the items and note down their composite z-score.
- RUN_DESCRIPTION: small-molecule binders of probe aLefty1, primary screen, biochemical, small-molecule microarray, 635/667 nm fluorescence (AID 1153);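 further: score merges spot fluorescence with signal-to-noise ratio from the scanned slide images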
- CONDITION: higher = more signal
Format: numeric value only, no unit, no commentary.

-- ask I have this compound here, Cc1ccc(S[C@]2(C(=O)NC3CC3)CC(=O)N(Cc3ccccc3)[C@@H]2c2ccc(CO)cc2)cc1 , and I need its recorded composite z-score.
-- reply 0.106

-- ask I have this compound here, CCOC(=O)C[C@H]1[C@H](OC(=O)c2ccccc2-c2ccccc2)[C@@H](NC(=O)c2ccc3ccccc3c2)c2cc(OCCCO)ccc2N1C(=O)c1ccc2ccccc2n1 , and I need its recorded composite z-score.
-- reply -0.193

-- ask I have this compound here, COCCOC(=O)N1C(=O)[C@@]2(c3cc(C#CCCO)ccc31)[C@H](c1ccccc1OCCO)N1[C@H](c3ccccc3)[C@H](c3ccccc3)OC(=O)[C@H]1[C@@H]2C(=O)N1CCN(c2ncccn2)CC1 , and I need its recorded composite z-score.
-- reply 0.85

-- ask I have this compound here, C=CCNC(=O)[C@H]1[C@@H]2C(=O)O[C@@H](c3ccccc3)[C@@H](c3ccccc3)N2[C@@H](c2ccc(O)cc2)[C@]12C(=O)N(C(=O)OCCOC)c1ccc(C#CCCO)cc12 , and I need its recorded composite z-score.
-- reply 0.0341

-- ask I have this compound here, N#Cc1ccc(NN2C(C(O)c3cccs3)C=CC3C(=O)N(c4ccccc4)C(=O)C32)cc1 (stereo unspecified) , and I need its recorded composite z-score.
-- reply 0.0262

-- ask I have this compound here, N#Cc1ccc(NN2C(C(O)c3ccc([N+](=O)[O-])cc3)C=CC3C(=O)N(c4ccccc4)C(=O)C32)cc1 (stereo unspecified) , and I need its recorded composite z-score.
-- reply 0.0927

----------
- EXPERIMENTAL_TARGET: Epidermal growth factor receptor (Homo sapiens)
- RUN_DESCRIPTION: EGFR binders on small-molecule microarrays, primary screen, biochemical, small-molecule microarray, 635 nm fluorescence (AID 1104);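 further: score merges 667 nm emission intensity with spot signal to noise over triplicate slides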
- CONDITION: EGFR binding, higher = more signal
Label 1 when composite z-score is at or above 0.1; otherwise label 0.

-- ask Answer whether composite z-score of [N-]=[N+]=NCc1ccccc1[C@@H]1OC(c2ccc(OCCCO)cc2)=N[C@]1(Cc1ccccc1N=[N+]=[N-])C(=O)NCc1ccccc1 is greater than or equal to 0.1.
-- reply 1

-- ask Answer whether composite z-score of C=CC[C@@H](OC(=O)Nc1ccc(OC)cc1)c1ccc(O)c2ccccc12 is greater than or equal to 0.1.
-- reply 1

-- ask Answer whether composite z-score of COC(=O)[C@]1(Cc2ccccc2N=[N+]=[N-])N=C(c2ccc(OCCCO)cc2)O[C@@H]1c1ccccc1N=[N+]=[N-] is greater than or equal to 0.1.
-- reply 0

-- ask Answer whether composite z-score of C=CC[C@@]1(C(=O)NCC(O)CO)N=C(c2ccc(OCCCO)cc2)O[C@@H]1c1ccccc1N=[N+]=[N-] (some centres not stated) is greater than or equal to 0.1.
-- reply 0

-- ask Answer whether composite z-score of CCCCC=C[C@@H](NC(=O)c1ccc(C(=O)OC)cc1)c1ccccc1 is greater than or equal to 0.1.
-- reply 1

-- ask Answer whether composite z-score of O=C1O[C@@H](c2ccccc2)[C@@H](c2ccccc2)N2[C@@H](c3ccc(O)cc3)[C@]3(C(=O)Nc4ccc(C#CC5(O)CCCCCC5)cc43)[C@@H](C(=O)N3CCCCCCC3)[C@H]12 is greater than or equal to 0.1.
-- reply 1

-- ask Answer whether composite z-score of CCOC(=O)C1=CC[C@@H](c2ccccc2)N(S(=O)(=O)c2ccc(C)cc2)[C@H]1C(=O)OCC is greater than or equal to 0.1.
-- reply 1
